Test system: CN0375-F725-PDC multi-cell spheroids, viability;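 also: spheroids exposed to drugs for seven days; 100% = DMSO vehicle control wells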
Measurement protocol: Anticancer human tumor CN0375-F725-PDC patient-derived colon carcinoma cell line growth inhibition [TAK]
Condition details: second compound 0.949 µM; first compound 0.1 µM; stronger effect = lower value
Label true (1) when viability, T/C is strictly below 60%; at or above that, label false (0).

{"columns": ["Molecule", "Label"],
 "data": [
  ["Cc1nc(NC(=O)N2CCCC2C(N)=O)sc1-c1ccnc(C(C)(C)C(F)(F)F)c1 (stereo not given) + CC(C)NCC(C(=O)N1CCN(c2ncnc3c2C(C)CC3O)CC1)c1ccc(Cl)cc1", "false (0)"],
  ["CC(C)CC(NC(=O)CNC(=O)c1cc(Cl)ccc1Cl)B1OC(=O)CC(CC(=O)O)(C(=O)O)O1 (stereo not given) + CC(C)NCC(C(=O)N1CCN(c2ncnc3c2C(C)CC3O)CC1)c1ccc(Cl)cc1", "true (1)"],
  ["CC(C)(C)c1nc(-c2cccc(NS(=O)(=O)c3c(F)cccc3F)c2F)c(-c2ccnc(N)n2)s1 + CC(C)NCC(C(=O)N1CCN(c2ncnc3c2C(C)CC3O)CC1)c1ccc(Cl)cc1", "false (0)"],
  ["CC(C)n1nc(-c2ccc3oc(N)nc3c2)c2c(N)ncnc21 + CC(C)NCC(C(=O)N1CCN(c2ncnc3c2C(C)CC3O)CC1)c1ccc(Cl)cc1", "true (1)"]
]}
